Kindly state apparent KD of MS2 coat protein for each of the entries shown.
# Test system: MS2 coat protein
# ASSAY PROCEDURE: apparent KD of MS2 coat protein; higher = weaker reporter binding
# COND: Eterna round: R107; input ligand: theophylline 2 mM
Be sure to follow the number with its unit.

Completed entries (count: 5):
GACCUUAUCUGAAGGAGCGAGGUAAAUAGGGUUGAGCAUACAUGAGGAUCACCCAUGUGGCCUCAGGUAGGUCGCAGAUAAGACA [Exclusion Arginine B GF29]
63.4 nM
AGUCUGGACUCGGCCGCCACUCGUGAUGCUUUGGCACAUGAGGAUCACCCAUGUGGUCGGCCUUAGAGGACCGGGAGUACCAGCU [Zaraoned]
61.3 nM
CUAUGGAUAAGAAGGAGCGUCGAAAAUGGGUAAACAUGAGGAUCACCCAUGUAAAGGGAACGACAGGUAGGUCGCUUAUUUAUAG [AstromonsSSArgB#7]
213 nM
CUAUAAGUACCGGUCCUCAGAUCCUCAUGACGAGGACCGGUACGGCCGCCACUCGAAACAUGAGGAUCACCCAUGUAAUAAUAUU [Brourdmod10]
24.2 nM
GCUAGGUCUACGGCCGCCACUAGACGUGGGUAAGACAUGAGGAUCACCCAUGUACUACGGGCGAAUAGGACCGGGUAGACCUAGC [SSTB NP+V+V2 #14 Same Structure]
668 nM

Continue with the sequence presented below.
# input Dear colleague, I am looking for the recorded apparent KD of MS2 coat protein of the following sequence: GCUGUUGCGGUGAGGUAUCCGGCUGUGGAAGGAGCGCGGAAUGCCGCAGGUAGGUCGCCACAUGAGGAUCACCCAUGUCGAUAUA [Atzalama]
# output 35 nM

====

# Test system: MS2 coat protein
# ASSAY PROCEDURE: apparent KD of MS2 coat protein, switch OFF state (with FMN for OFF switches, without FMN for ON switches); designed switch direction (-1 OFF switch, 1 ON switch): -1; higher = weaker reporter binding
# COND: FMN input: 0 or 200 uM; Eterna round: R93 (includes R88 designs)
Kindly state apparent KD of MS2 coat protein for each of the entries shown.
Answers are plain numbers, in µM.

Completed entries (count: 4):
GAAAAGUGAGGAUAUUCGGAUAGGAAAACGAAAACCUAUCCGAAGAAGGCACAUGAGGAUCACCCAUGUGAAAA [Mat - Exaclusion 4 - Eli mod - D44]
0.0268
AGUUGGCGAGGAUAUACAUGAGGAUCACCCAUGUGAGAGUAAGAAGUGAGAAAGAGAAGUAGAAGGCGCUAACA [Ruby 54]
0.284
CUCUUGUCAGGAUAUGGAAGAAAAGAAAAGAAAGAAAAGAACCAGAAGGGACAUGAGGAUCACCCAUGUAAGAA [EteRNA is fun!]
0.0377
AAGAAGUCAGGAUAUGCUAAAGAAAUAAAAAGAAAGAAAGAACAUGAGGAUCACCCAUGUAGAAGGGACAAGAA [Seheqenre Sankhptahi]
0.0389

Hi, could you look up apparent KD of MS2 coat protein for each item in my list?
1. AAGAAGCGAGGAUAUACAUGAGGAUCACCCAUGUAAAAGAAAGAAAAGGGAAAGAAAAGUAGAAGGCGCAAGAA [Nebpehtire Ahmose I, Ahmosis I]
2. AACAAGUCAGGAUAUUCGAAAAGUAAAUAAGUAAAACAAAAGAAGAAGGGACAUGAGGAUCACCCAUGUAAAUA [JR_Exc004_Sub016]
3. AAAAACAGAGGAUAUACAUGAGGAUCACCCAUGUAAAAAUGUAGAAGGCUGAAAAAAAAAAGAAGGAAAAAAAA [Meechl Ex3 R2 m0]
4. AAAAAGAGAGGAUAUGCAGGAGAAAAAAAAAAAAAAAAAAAACAUGAGGAUCACCCAUGUAGAAGGCUCAAAAA [Ecls2-II]

# output
0.177
0.0279
0.0232
0.0157

====

# System: MS2 coat protein
# ASSAY PROCEDURE: apparent KD of MS2 coat protein; higher = weaker reporter binding
# COND: Eterna round: R107; input ligand: theophylline 2 mM
Kindly state apparent KD of MS2 coat protein for each of the entries shown.
Be sure to follow the number with its unit.

Completed entries (count: 2):
CGCGGGCCACAUGAGGAUCACCCAUGUGAAGGAGCGGCGAAUAAGCCAGGUAGGUCGCGCAUGAAUAAAUCAUGUAGGUGGCGAA [XArg-A 10 V1&2]
0.0216 µM
AAUGUAUGGCACAUGAGGAUCACCCAUGUGCGAGGACCGGUACGGCCGCCACUCGGUCGGUGGUUAAUGAAGCUAUACAUUAAUG [XTryp A #13]
0.0551 µM

# input Dear colleague, I am looking for the recorded apparent KD of MS2 coat protein of the following sequence: AACAACAAGGGAAGGAGCGCGAAUAAUAGACAUGAGGAUCACCCAUGUAUCAUGGGAUUAACGCAGGUAGGUCGCCCACAAACAA [#07 Exclusion - Arginine B]
# output 0.152 µM

====

# Test system: MS2 coat protein
# ASSAY PROCEDURE: apparent KD of MS2 coat protein; higher = weaker reporter binding
# COND: Eterna round: R107; input ligand: arginine 13.2 mM
Kindly state apparent KD of MS2 coat protein for each of the entries shown.
One number for each entry, in nM.

AAUUCAAGGUUCUUGAUGUAUUAUAUAUUUCGAGGACCGGUACGGCCGCCACUCGUUAAUUACAUGAGGAUCACCCAUGUUAGCU [JR_ExcTryptoA_Sub010]
14.2

Hi, could you look up apparent KD of MS2 coat protein for each item in my list?
1. GCCUCCAGCCGAAGGAGCGCUAGAAGGUGACAUGAGGAUCACCCAUGUGUGUGAUGUGGCUAGCAGGUAGGUCGCGGAGGAGGUA [Exclusion - Arginine B (Freestyle 21)]
2. ACAUGAGUGGAUAAUAAAUAAGAAGGCGAAGGAGCGUGAAGAAUCACAGGUAGGUCGCGCAAAAUACAUGAGGAUCACCCAUGUU [JR_Nu_ExcArginiA_Sub031]
3. GCAUGUGGAGUCUUACUAGAGAGGACAGAUACCAGUAAGAUGUGAUACCCUUGGCAGCUGCGAUUUACAUGAGGAUCACCCAUGU [X-TheoA-ms2@67]

# output
1: 118; 2: 22.5; 3: 19.2

Hi, could you look up apparent KD of MS2 coat protein for each item in my list?
1. CUAUAAGUACCGGUCCUCAGAUCCUCAUGACGAGGACCGGUACGGCCGCCACUCGAAACAUGAGGAUCACCCAUGUAAUAAUAAU [Brourdmod06]
2. AUGGAACAUGAGGAUCACCCAUGUGAUGAUACCAGAUUAACGCUUAUCCCUUGGCAGCAUGUCCGCCCUCAACCUGUGGCGUAUU [theeternabot_sameState_MS2_Theo_A_50]

# output
[15, 21.5]

====

# System: MS2 coat protein
# ASSAY PROCEDURE: apparent KD of MS2 coat protein; designed switch direction (-1 OFF switch, 1 ON switch): -1; higher = weaker reporter binding
# COND: input ligand: FMN 200 uM
Kindly state apparent KD of MS2 coat protein for each of the entries shown.
Give bare numbers, in µM.

UUUUGCUCAGGAUAUACAUGAGGAUCACCCAUGUAUAUUGAAGGUAAUACAUGGGAAUGUAGAAGGGAGCUCAU [Omei Ex3 Pseudoloop 21] (Eterna round: R97, puzzle: Exclusion 3)
0.0479
UACACUCAGCAGGAUAUGCAACAAAAUUAAAACGCAGAAGGGUUGACAUGAGGAUCACCCAUGUAACUCAUGCA [EX6 A.1] (Eterna round: R97, puzzle: Exclusion 6)
0.0142
AUACCACGAGGAUAUCGUCUAUUCCACAUGAGGAUCACCCAUGUUAUCCAUGUUUCGUUUCGAGAAGGCGUGGGUU [JR_E5_Sub074] (Eterna round: R96, puzzle: Exclusion 5)
0.0508
UUAUCAUGCUUUAGAUCCUACAUGAGGAUCACCCAUGUGCUCGUCUUGUAUCGUUCUGUGUCGUAAGUCUCUGUUCG [mod Jandersonlee designer] (Eterna round: R97, puzzle: Sensor, turn-off variant 1)
0.924
ACAUGAGGAUCACCCAUGUCCGGCUGGUCUGUCUCGGCUGUCGAGGAUAUAGCACGGUAUCCGCGCUAGAAGGCGGGAGCCGGU [Aenatbe mod 87] (Eterna round: R96, puzzle: Exclusion NG 3)
0.216
ACUCUAUAGUAGGAUAUCAUCAAACUAUUGUGAUGAGAAGGACUAACAUGAGGAUCACCCAUGUUAACGUGAAG [Mod of Brourd 5 - Jieux - Exclusion 6] (Eterna round: R97, puzzle: Exclusion 6)
0.0243

Hi, could you look up apparent KD of MS2 coat protein for each item in my list?
1. ACUCAGUGAGGAUAUCGCCAGAGAGCCGCAACAGCUCCUGAUGAGAAGGCACAUGAGGAUCACCCAUGUAAGCA [EX4 C.19] (Eterna round: R97, puzzle: Exclusion 4)
2. GCUUCGUCUGUGGGUGGUGACAUGAGGAUCACCCAUGUUUUGCUCGUCUUGUGCCGGGCCCGGCGCCCGGGCCCGGC [-38.7, -63.8, A 8%] (Eterna round: R97, puzzle: Sensor, turn-off variant 1)
3. UUUUUGUAUGAAGGAUAUACUUAACAUGAGGAUCACCCAUGUGGUGUUGUGAGUGAGUGAGUUUAGUAGAAGGUCAAGUAUUUU [JMF's solution 46] (Eterna round: R96, puzzle: Exclusion NG 2)

# output
[0.321, 0.721, 0.58]
